Cited source: patent US20250027068

# reported Enzyme Activity Endpoint Assay (purified): scIgG; entries follow
- assaySystem: pooled human IgG
Numeric answer only, unit ng/µL assumed.

What value of Enzyme Activity Endpoint Assay (purified): scIgG has been reported for the following protein? PRT-64 (protein) MANQEIRYSEVTPYHVTSVWTKGVTPPANFTQGEDVFHAPYVANQGWYDITKTFNGKDDLLCGAATAGNMLHWWFDQNKDQIDRYLEEHPEKQKINFNGEQMFDVKEAIDTKNHQLDSKLFEYFKEKAFPYLSTKHLGVFPDHVIDMFINGYRLSLTNHGPTPVKEGSKDPRGGIFDAVFTRGDQSKLLTSRHDFKEKNLKEISDLIKKELTEGKALGLSHTYANVRINHVINLWGADFDSNGNLKAIYVTDSDSNASIGMKKYFVGVNSAGKVAISAKEIKEDNIGAQVLGLFTLSTGQDSWNQTN
17

Which Enzyme Activity Endpoint Assay (purified): scIgG is listed for PRT-71 (protein) MANQEIRYSEVTPYHVTSVWTKGVTPPANFTQGEDVFHAPYVANQGWYDITKTFNGKDDLLCGAATAGNMLHWWFDQNKEEIEAYLKKHPEKQKIMFGDQELLDVRKVINTKGSQTNSELFNYFRDKAFPGLSARRLGVMPDLVLDMFINGYYLNVYKTQTTDVNRTYQEKDKRGGIFDAVFTRGDQSKLLTSRHDFKEKNLKEISDLIKKELTEGKALGLSHTYANVRINHVINLWGADFDSNGNLKAIYVTDSDSNASIGMKKYFVGVNSAGKVAISAKEIKEDNIGAQVLGLFTLSTGQDIWNQTN ?
0
